Hey, just so you know, these numbers are from PubChem BioAssay.

ASSAY OVERVIEW: inhibitors of E-selectin induction by TNFa, primary screen, imaging, HUVEC, immunofluorescence, MLSMR starter and 10KST1 sets (AID 487);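 also: signal is fraction of cell area covered by stained E-selectin grains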
CONDITION PARAMETERS: HUVEC TNFalpha-induced E-selectin immunofluorescence imaging, at 2 µM; stronger effect = higher value
Quick rule for you: inhibition at -20% or higher means 1, lower means 0.

Study these solved cases before continuing.
COC1=CC(=O)CC(C)C12Oc1c(Cl)c(OC)cc(OC)c1C2=O (stereo not given)	1
COc1ccc2nc(S(=O)Cc3ncc(C)c(OC)c3C)[nH]c2c1 (stereo not given)	0
CCOc1ccccc1N1CCN(c2nc3ccccc3nc2C(C#N)C(=O)OC(C)C)CC1 (stereo not given)	0

*Q* For this molecule, is measured inhibition -20% or higher? `CCCCCCc1cc2cc(-c3nnc(-c4ccccc4O)o3)c(=O)oc2cc1O`
*A* 0

*Q* Record: CCC1(C)Cc2c(sc3c2c(=O)n(C)c2nnc(SCc4ccc5c(c4)OCO5)n32)CO1 (stereo not given)
*A* 1
